Run Description: Pharmacokinetic analysis, plasma and tissue concentration
Assay type: in vivo, CD1 mice
Test Context: CD1, mouse, stomach, sc, 1 mg/kg
Observation Type: concentration at 0.5 h (ng/mL)
Answer format: numeric, ng/mL implied, no suffix.

Lab note: "COC(=O)C[C@](O)(CCCC(C)(C)O)C(=O)O[C@@H]1C(OC)=C[C@]23CCCN2CCc2cc4c(cc2[C@H]13)OCO4" gave concentration at 0.5 h of 999

* * *

Run Description: Pharmacokinetic analysis, plasma and tissue concentration
Assay type: in vivo, CD1 mice
Test Context: CD1, mouse, heart, sc, 1 mg/kg
Observation Type: concentration at 8 h (ng/mL)
Answer format: numeric, ng/mL implied, no suffix.

Lab note: COC(=O)C[C@](O)(CCCC(C)(C)O)C(=O)O[C@@H]1C(OC)=C[C@]23CCCN2CCc2cc4c(cc2[C@H]13)OCO4 [HHT, homoharringtonine] gave concentration at 8 h of 115
